Reference source: paper PMC10314922

Ca2+-Uptake C10 values for the molecules below.
Molecular target: SERCA2a (Sus scrofa)
Construct: Cardiac SR vesicles were isolated from fresh porcine left ventricular tissue using differential centrifugation; from tissue; host or cells: porcine left ventricular tissue (cardiac SR vesicles)
Sequence (P11607 1-997 isoform P11607-2): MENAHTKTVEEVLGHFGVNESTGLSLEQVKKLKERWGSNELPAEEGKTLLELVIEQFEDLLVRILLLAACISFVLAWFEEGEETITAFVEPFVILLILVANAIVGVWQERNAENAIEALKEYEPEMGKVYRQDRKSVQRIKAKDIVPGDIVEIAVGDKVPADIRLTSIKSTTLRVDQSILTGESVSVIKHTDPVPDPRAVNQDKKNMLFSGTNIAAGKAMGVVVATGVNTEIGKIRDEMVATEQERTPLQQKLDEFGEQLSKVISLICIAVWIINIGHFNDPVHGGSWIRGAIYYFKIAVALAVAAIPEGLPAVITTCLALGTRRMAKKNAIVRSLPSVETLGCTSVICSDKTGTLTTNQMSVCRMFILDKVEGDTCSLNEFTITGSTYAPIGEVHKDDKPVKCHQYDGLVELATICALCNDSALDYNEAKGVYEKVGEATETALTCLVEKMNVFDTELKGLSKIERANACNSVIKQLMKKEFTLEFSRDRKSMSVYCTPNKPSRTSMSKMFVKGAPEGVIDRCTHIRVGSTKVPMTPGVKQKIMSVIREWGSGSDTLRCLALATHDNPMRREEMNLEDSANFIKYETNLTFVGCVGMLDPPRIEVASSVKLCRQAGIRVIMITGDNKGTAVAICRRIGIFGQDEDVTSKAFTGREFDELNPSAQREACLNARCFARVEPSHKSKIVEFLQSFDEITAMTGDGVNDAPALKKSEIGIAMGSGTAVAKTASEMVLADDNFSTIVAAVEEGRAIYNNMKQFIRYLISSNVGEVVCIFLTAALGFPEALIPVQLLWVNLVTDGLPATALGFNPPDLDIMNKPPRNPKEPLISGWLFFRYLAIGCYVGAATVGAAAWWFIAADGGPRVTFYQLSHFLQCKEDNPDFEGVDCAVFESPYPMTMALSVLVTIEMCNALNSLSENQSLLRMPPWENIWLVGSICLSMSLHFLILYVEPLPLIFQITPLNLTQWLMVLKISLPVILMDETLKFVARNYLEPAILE
Assay: Oxalate-supported Fluo-4 Ca2+-uptake (Ca2+-transport) assay in pig cardiac SR (pCSR) vesicles
Assay type: biochemical
Settings: [Ca2+]MID (pCa6.2), concentration yielding 10% effect
Just the number in µM, nothing appended.

# annotated cases, reported Ca2+-Uptake C10 shown
CCc1ccc(S(=O)(=O)N2CCCC(C(=O)c3sccc3C)C2)cc1 (centres unmarked)	1.7
CCC(C)(C)c1nnc(NC(=O)NCc2ccc(F)cc2F)s1	1.7
O=S(=O)(NCc1ccccc1)N1CCc2ccc(C(F)(F)F)cc2C1	2.2

Quick check: Ca2+-Uptake C10 of Cc1nc(N2CCCCCCC2)ncc1C(C)NC(=O)c1ccnn1C (centres unmarked) ?
22.7

Again, but for OCC1(Cc2ccccc2F)CCCN(Cc2cc3c(cc2Cl)OCO3)C1 (centres unmarked)
0.8
